These data points were gathered from the supplement of paper PMC10567573.

B1: NECAB1 (parent)
chain: NLDTEELCEYFSQHLGEYENVLAA

Variants of: B1
protocol_summary: protein stability index of a GFP-peptide fusion (GPS, HEK-293T) (PSI 1-6); higher = more stable;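 note: lentivirally expressed fusions sorted by FACS into six bins by GFP to DsRed ratio, PSI derived from sequencing read proportions per bin multiplied by bin number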
settings: c terminus: a fixed tail appended
Parameter: protein stability index. Scope: all listed entries.
measurement_kind: protein stability index

>  <mutation_name>
A23C

>  <measured>
2.46

$$$$
>  <mutation_name>
L15Q

>  <measured>
4

$$$$
>  <mutation_name>
G16T

>  <measured>
2.04

$$$$
>  <mutation_name>
V21M

>  <measured>
1.88

$$$$
>  <mutation_name>
L2M

>  <measured>
3.46

$$$$
>  <mutation_name>
H14R

>  <measured>
2.12

$$$$
>  <mutation_name>
T4I

>  <measured>
2.41

$$$$
>  <mutation_name>
G16H

>  <measured>
1.48

$$$$
>  <mutation_name>
E5Q

>  <measured>
1.97

$$$$
>  <mutation_name>
Q13G

>  <measured>
3.3

$$$$
>  <mutation_name>
Y10C

>  <measured>
4.46

$$$$
>  <mutation_name>
A23L

>  <measured>
1.75

$$$$
>  <mutation_name>
E5R

>  <measured>
2.13

$$$$
>  <mutation_name>
T4W

>  <measured>
2.63

$$$$
>  <mutation_name>
L2T

>  <measured>
3.52

$$$$
>  <mutation_name>
C8D

>  <measured>
4.39

$$$$
>  <mutation_name>
N20Y

>  <measured>
3.07

$$$$
>  <mutation_name>
F11V

>  <measured>
3.9

$$$$
>  <mutation_name>
F11L

>  <measured>
2

$$$$
>  <mutation_name>
E17H

>  <measured>
1.54

$$$$
>  <mutation_name>
F11M

>  <measured>
3.48

$$$$
>  <mutation_name>
G16V

>  <measured>
2.07

$$$$
>  <mutation_name>
E17A

>  <measured>
2.12

$$$$
>  <mutation_name>
S12Q

>  <measured>
2.55

$$$$
>  <mutation_name>
N1E

>  <measured>
3.7

$$$$
>  <mutation_name>
V21R

>  <measured>
2.97

$$$$
>  <mutation_name>
G16A

>  <measured>
2.24

$$$$
>  <mutation_name>
E6L

>  <measured>
1.74

$$$$
>  <mutation_name>
E17D

>  <measured>
2.88

$$$$
>  <mutation_name>
C8R

>  <measured>
3.17

$$$$
>  <mutation_name>
V21Q

>  <measured>
3.52

$$$$
>  <mutation_name>
E19D

>  <measured>
3.98

$$$$
>  <mutation_name>
T4G

>  <measured>
3.91

$$$$
>  <mutation_name>
N20V

>  <measured>
4.33

$$$$
>  <mutation_name>
E9V

>  <measured>
1.93

$$$$
>  <mutation_name>
E6S

>  <measured>
1.92

$$$$
>  <mutation_name>
Y10Q

>  <measured>
4.67

$$$$
>  <mutation_name>
H14K

>  <measured>
2.73

$$$$
>  <mutation_name>
D3P

>  <measured>
3.14

$$$$
>  <mutation_name>
G16E

>  <measured>
2.04

$$$$
>  <mutation_name>
E5H

>  <measured>
2.1

$$$$
>  <mutation_name>
L7R

>  <measured>
4.49

$$$$
>  <mutation_name>
G16Q

>  <measured>
2.71

$$$$
>  <mutation_name>
L2C

>  <measured>
2.25

$$$$
>  <mutation_name>
E5Y

>  <measured>
1.69

$$$$
>  <mutation_name>
L7W

>  <measured>
3.85

$$$$
>  <mutation_name>
L2D

>  <measured>
4.72

$$$$
>  <mutation_name>
E17V

>  <measured>
2.33

$$$$
>  <mutation_name>
L22M

>  <measured>
3.71

$$$$
>  <mutation_name>
Y10W

>  <measured>
2.22

$$$$
>  <mutation_name>
Q13R

>  <measured>
3.25

$$$$
>  <mutation_name>
Y18S

>  <measured>
4.56

$$$$
>  <mutation_name>
E17M

>  <measured>
2.17

$$$$
>  <mutation_name>
F11H

>  <measured>
4.26

$$$$
>  <mutation_name>
T4R

>  <measured>
3.05

$$$$
>  <mutation_name>
E6D

>  <measured>
2.53

$$$$
>  <mutation_name>
L7A

>  <measured>
4.43

$$$$
>  <mutation_name>
N1V

>  <measured>
3.12

$$$$
>  <mutation_name>
A24T

>  <measured>
2.99

$$$$
>  <mutation_name>
L2I

>  <measured>
2.23

$$$$
>  <mutation_name>
E9W

>  <measured>
1.77

$$$$
>  <mutation_name>
L7V

>  <measured>
4.59

$$$$
>  <mutation_name>
E9K

>  <measured>
2.25

$$$$
>  <mutation_name>
E19H

>  <measured>
1.97

$$$$
>  <mutation_name>
A23I

>  <measured>
2.02

$$$$
>  <mutation_name>
H14D

>  <measured>
3.86

$$$$
>  <mutation_name>
H14T

>  <measured>
4.11

$$$$
>  <mutation_name>
E9Q

>  <measured>
2.05

$$$$
>  <mutation_name>
E5L

>  <measured>
1.89

$$$$
>  <mutation_name>
A23F

>  <measured>
2.28

$$$$
>  <mutation_name>
T4L

>  <measured>
2.15

$$$$
>  <mutation_name>
Y18V

>  <measured>
3.14

$$$$
>  <mutation_name>
F11W

>  <measured>
3.85

$$$$
>  <mutation_name>
V21E

>  <measured>
4.2

$$$$
>  <mutation_name>
E19K

>  <measured>
2.67

$$$$
>  <mutation_name>
G16N

>  <measured>
1.95

$$$$
>  <mutation_name>
G16F

>  <measured>
2.27

$$$$
>  <mutation_name>
N20D

>  <measured>
2.71

$$$$
>  <mutation_name>
N1T

>  <measured>
3.22

$$$$
>  <mutation_name>
T4K

>  <measured>
2.69

$$$$
>  <mutation_name>
S12T

>  <measured>
2.91

$$$$
>  <mutation_name>
S12C

>  <measured>
2.53

$$$$
>  <mutation_name>
A24Y

>  <measured>
2.59

$$$$
>  <mutation_name>
N20H

>  <measured>
2.67

$$$$
>  <mutation_name>
Y18N

>  <measured>
4.27

$$$$
>  <mutation_name>
E17N

>  <measured>
2.14

$$$$
>  <mutation_name>
L7T

>  <measured>
4.42

$$$$
>  <mutation_name>
E17Q

>  <measured>
1.66

$$$$
>  <mutation_name>
Q13T

>  <measured>
3.27

$$$$
>  <mutation_name>
L2H

>  <measured>
3.52

$$$$
>  <mutation_name>
C8A

>  <measured>
2.98

$$$$
